Biological target: UniProt P51813
Sequence (P51813 whole entry): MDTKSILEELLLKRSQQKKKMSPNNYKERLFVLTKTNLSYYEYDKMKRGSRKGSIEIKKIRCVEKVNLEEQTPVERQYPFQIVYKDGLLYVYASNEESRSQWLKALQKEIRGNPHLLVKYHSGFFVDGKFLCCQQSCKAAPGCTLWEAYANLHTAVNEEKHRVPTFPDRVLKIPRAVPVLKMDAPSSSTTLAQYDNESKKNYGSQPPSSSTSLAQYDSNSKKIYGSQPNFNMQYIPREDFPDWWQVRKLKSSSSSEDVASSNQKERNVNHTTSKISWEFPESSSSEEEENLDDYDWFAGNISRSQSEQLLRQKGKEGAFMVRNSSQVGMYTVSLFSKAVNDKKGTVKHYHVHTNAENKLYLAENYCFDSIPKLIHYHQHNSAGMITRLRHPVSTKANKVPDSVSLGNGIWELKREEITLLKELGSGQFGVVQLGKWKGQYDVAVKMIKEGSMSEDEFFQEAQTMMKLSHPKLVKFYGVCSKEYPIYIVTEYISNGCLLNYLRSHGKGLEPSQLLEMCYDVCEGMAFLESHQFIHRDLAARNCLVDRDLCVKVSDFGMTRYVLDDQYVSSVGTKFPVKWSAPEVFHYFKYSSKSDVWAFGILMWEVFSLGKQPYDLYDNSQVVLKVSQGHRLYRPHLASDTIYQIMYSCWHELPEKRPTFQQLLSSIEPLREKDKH
Test: HTRF KinEASE-TK kinase assay, BMX
Format: biochemical
Conditions: 10 uM compound, 3 h preincubation
Here, each record is paired with measured remaining activity at 10 µM data.

{"MOLECULE": "COCCOc1ccc(Nc2ncc(F)c(Nc3cccc(Nc4c(F)c(F)c(F)c(F)c4S(C)(=O)=O)c3)n2)cc1 [Compound I-64]", "STUDY_SYSTEM": "UniProt P51813", "RESULT": "< 50%"}
{"MOLECULE": "CN(C)S(=O)(=O)c1c(F)c(F)c(F)c(F)c1C(=O)N1CCC[C@@H](n2nc(-c3ccc(Oc4ccccc4)cc3)c3c(N)ncnc32)C1 [Compound I-31]", "STUDY_SYSTEM": "UniProt P51813", "RESULT": "< 50%"}
{"MOLECULE": "CS(=O)(=O)c1c(F)c(F)c(F)c(F)c1C(=O)NCCCn1nc(-c2ccc(Oc3ccccc3)cc2)c2c(N)ncnc21 [Compound I-39]", "STUDY_SYSTEM": "UniProt P51813", "RESULT": "< 50%"}

Ask: Give reported remaining activity at 10 µM value for CN(C)S(=O)(=O)c1c(F)c(F)c(F)c(F)c1C(=O)NCCNc1ncnc2[nH]ccc12 [Compound I-47]
Result: < 50%

Ask: Retrieve remaining activity at 10 µM measured for CS(=O)(=O)c1c(F)c(F)c(F)c(F)c1Nc1cc2c(Nc3ccc(F)c(Cl)c3)ncnc2cc1O[C@H]1CCOC1 [Compound I-2] and print it.
Result: > 90%

Ask: Fill in reported remaining activity at 10 µM for this entry: COCCOc1ccc(Nc2ncc(F)c(Nc3cccc(NC(=O)c4c(F)c(F)c(F)c(F)c4S(=O)(=O)N(C)C)c3)n2)cc1 [Compound I-59]
Result: < 50%

Ask: Answer with reported remaining activity at 10 µM of Nc1ncnc2c1c(-c1ccc(Oc3ccccc3)cc1)nn2CCCNC(=O)c1c(F)c(F)c(F)c(F)c1S(N)(=O)=O [Compound I-34]
Result: < 50%

Ask: Answer with the recorded remaining activity at 10 µM of Nc1ncnc2c1c(-c1ccc(Oc3ccccc3)cc1)nn2CCNC(=O)c1c(F)c(F)c(F)c(F)c1S(N)(=O)=O [Compound I-42] only.
Result: < 50%

Ask: Output measured remaining activity at 10 µM for this item: COCCOc1ccc(Nc2ncc(F)c(Nc3cccc(NS(=O)(=O)c4c(F)c(F)c(F)c(F)c4CF)c3)n2)cc1 [Compound I-58]
Result: < 50%

Ask: Name the recorded remaining activity at 10 µM of the item CS(=O)(=O)c1c(F)c(F)c(F)c(F)c1C(=O)NCCNc1ncnc2[nH]ccc12 [Compound I-45] in your answer.
Result: < 50%

Ask: Using known records, supply remaining activity at 10 µM for COCCOc1ccc(Nc2ncc(F)c(NCCCNS(=O)(=O)c3c(F)c(F)c(F)c(F)c3OC(F)F)n2)cc1 [Compound I-55]
Result: < 50%

Ask: Tell me its remaining activity at 10 µM given C[S+]([O-])c1c(F)c(F)c(F)c(F)c1C(=O)Nc1cc2c(Nc3ccc(F)c(Cl)c3)ncnc2cc1OC1CCOC1 (stereo not shown) [Compound I-3] as the entry.
Result: > 90%

Ask: Please list remaining activity at 10 µM recorded for the molecule COCCOc1ccc(Nc2ncc(F)c(Nc3cccc(NC(=O)c4c(F)c(F)c(F)c(F)c4[S@+](C)[O-])c3)n2)cc1 (stereo in doubt) [Compound I-62]
Result: < 50%

----------
remaining activity at 10 µM values for the compounds below.
Target: JAK3 (Homo sapiens (Human))
Assay: HTRF KinEASE-TK kinase assay, JAK3
Assay type: biochemical
Conditions: read-out: % JAK3 Remaining activity vs DMSO (10 μM, 3 h)

{"COMPOUND": "CS(=O)(=O)c1c(F)c(F)c(F)c(F)c1C(=O)NCCNc1ncnc2[nH]ccc12", "RESULT": "< 50%"}
{"COMPOUND": "COc1c(F)c(F)c(F)c(F)c1S(=O)(=O)n1nc(-c2ccc(Oc3ccccc3)cc2)c2c(N)ncnc21", "RESULT": "50 to 90%"}
{"COMPOUND": "CN(C)S(=O)(=O)c1c(F)c(F)c(F)c(F)c1C(=O)NCCn1nc(-c2ccc(Oc3ccccc3)cc2)c2c(N)ncnc21", "RESULT": "50 to 90%"}
{"COMPOUND": "CS(=O)(=O)c1c(F)c(F)c(F)c(F)c1CNCCNc1ncnc2[nH]ccc12", "RESULT": "< 50%"}

Ask: Note down remaining activity at 10 µM recorded for `COCCOc1ccc(Nc2ncc(F)c(Nc3cccc(Nc4c(F)c(F)c(F)c(F)c4S(C)(=O)=O)c3)n2)cc1`
Result: < 50%

Ask: // Input: `O=S(=O)(Nc1cc2c(Nc3ccc(F)c(Cl)c3)ncnc2cc1O[C@H]1CCOC1)c1c(F)c(F)c(F)c(F)c1C(F)(F)F` . Output its remaining activity at 10 µM only.
Result: < 50%

Ask: Please report remaining activity at 10 µM for the following compound: `NS(=O)(=O)c1c(F)c(F)c(F)c(F)c1C(=O)NCCNc1ncnc2[nH]ccc12`
Result: < 50%

Ask: Give remaining activity at 10 µM for the following compound: `CS(=O)(=O)c1c(F)c(F)c(F)c(F)c1C(=O)Nc1cc2c(Nc3ccc(F)c(Cl)c3)ncnc2cc1O[C@H]1CCOC1`
Result: < 50%

Ask: Report remaining activity at 10 µM, nothing else, for this compound: `CN(CCn1nc(-c2ccc(Oc3ccccc3)cc2)c2c(N)ncnc21)c1c(F)c(F)c(F)c(F)c1S(C)(=O)=O`
Result: > 90%

Ask: Give the measured remaining activity at 10 µM for Nc1ncnc2c1c(-c1ccc(Oc3ccccc3)cc1)nn2C1CCN(S(=O)(=O)c2c(F)c(F)c(F)c(F)c2OC(F)F)C1 (stereo in doubt)
Result: 50 to 90%

Ask: Supply measured remaining activity at 10 µM of `COCCOc1ccc(Nc2ncc(F)c(Nc3cccc(NS(=O)(=O)c4c(F)c(F)c(F)c(F)c4CF)c3)n2)cc1` in your reply.
Result: < 50%

Ask: Give remaining activity at 10 µM for the following compound: `CS(=O)(=O)c1c(F)c(F)c(F)c(F)c1CNCCn1nc(-c2ccc(Oc3ccccc3)cc2)c2c(N)ncnc21`
Result: < 50%

Ask: Specify remaining activity at 10 µM for `Nc1ncnc2c1c(-c1ccc(Oc3ccccc3)cc1)nn2CCNS(=O)(=O)c1c(F)c(F)c(F)c(F)c1OCF` and stop.
Result: 50 to 90%

Ask: Indicate the recorded remaining activity at 10 µM value for this compound: `COCCOc1ccc(Nc2ncc(F)c(Nc3cccc(NC(=O)c4c(F)c(F)c(F)c(F)c4S(C)(=O)=O)c3)n2)cc1`
Result: < 50%

----------
A collection of compounds and their measured remaining activity at 10 µM
Molecular target: UniProt:P00533
Sequence (P00533 25-1210): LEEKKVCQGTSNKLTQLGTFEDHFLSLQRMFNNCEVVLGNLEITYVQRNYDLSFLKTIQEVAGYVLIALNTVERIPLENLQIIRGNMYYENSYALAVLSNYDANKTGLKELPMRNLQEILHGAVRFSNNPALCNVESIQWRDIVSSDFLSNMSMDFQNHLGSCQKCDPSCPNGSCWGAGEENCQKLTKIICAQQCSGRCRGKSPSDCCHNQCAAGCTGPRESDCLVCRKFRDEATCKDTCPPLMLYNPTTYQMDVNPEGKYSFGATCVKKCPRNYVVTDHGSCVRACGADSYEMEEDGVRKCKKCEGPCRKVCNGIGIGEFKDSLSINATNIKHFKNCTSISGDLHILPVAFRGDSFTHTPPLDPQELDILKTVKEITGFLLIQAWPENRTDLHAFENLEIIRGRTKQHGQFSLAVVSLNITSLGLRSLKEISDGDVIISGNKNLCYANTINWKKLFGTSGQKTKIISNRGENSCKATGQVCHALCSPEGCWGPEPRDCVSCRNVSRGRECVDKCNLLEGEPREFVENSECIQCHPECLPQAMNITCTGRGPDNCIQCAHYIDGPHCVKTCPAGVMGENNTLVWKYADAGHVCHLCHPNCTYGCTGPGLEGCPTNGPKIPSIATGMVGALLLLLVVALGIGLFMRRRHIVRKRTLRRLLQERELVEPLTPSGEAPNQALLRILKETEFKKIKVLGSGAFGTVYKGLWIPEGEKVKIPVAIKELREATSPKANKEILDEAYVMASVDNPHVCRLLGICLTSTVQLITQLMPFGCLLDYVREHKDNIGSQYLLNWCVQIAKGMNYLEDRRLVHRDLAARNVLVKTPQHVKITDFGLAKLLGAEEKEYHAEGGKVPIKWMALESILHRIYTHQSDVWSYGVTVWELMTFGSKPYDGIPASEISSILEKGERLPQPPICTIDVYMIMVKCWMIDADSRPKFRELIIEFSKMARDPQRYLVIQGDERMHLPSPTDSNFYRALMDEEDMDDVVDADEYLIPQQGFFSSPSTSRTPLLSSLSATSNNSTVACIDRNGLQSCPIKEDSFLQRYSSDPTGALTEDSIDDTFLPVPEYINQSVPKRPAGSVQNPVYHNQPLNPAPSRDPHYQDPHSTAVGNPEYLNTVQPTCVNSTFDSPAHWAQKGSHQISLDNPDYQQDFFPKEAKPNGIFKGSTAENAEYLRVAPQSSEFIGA
Experiment: HTRF KinEASE-TK kinase assay, EGFR
Format: biochemical
Conditions: 10 μM compound, 3 h preincubation; read-out: % EGFR Remaining activity vs DMSO (10 μM, 3 h)

{"COMPOUND": "COCCOc1ccc(Nc2ncc(F)c(Nc3cccc(NS(=O)(=O)c4c(F)c(F)c(F)c(F)c4OC(F)F)c3)n2)cc1 [Compound I-54]", "STUDY_SYSTEM": "UniProt:P00533", "remaining activity at 10 µM": "50 to 90%"}

# next compound below
Ask: Using the record for CS(=O)(=O)c1c(F)c(F)c(F)c(F)c1CNCCn1nc(-c2ccc(Oc3ccccc3)cc2)c2c(N)ncnc21 [Compound I-44] , state its measured remaining activity at 10 µM.
Result: < 50%

----------
Target: JAK3 (Homo sapiens (Human), UniProt P52333)
Sequence (P52333 781-1124): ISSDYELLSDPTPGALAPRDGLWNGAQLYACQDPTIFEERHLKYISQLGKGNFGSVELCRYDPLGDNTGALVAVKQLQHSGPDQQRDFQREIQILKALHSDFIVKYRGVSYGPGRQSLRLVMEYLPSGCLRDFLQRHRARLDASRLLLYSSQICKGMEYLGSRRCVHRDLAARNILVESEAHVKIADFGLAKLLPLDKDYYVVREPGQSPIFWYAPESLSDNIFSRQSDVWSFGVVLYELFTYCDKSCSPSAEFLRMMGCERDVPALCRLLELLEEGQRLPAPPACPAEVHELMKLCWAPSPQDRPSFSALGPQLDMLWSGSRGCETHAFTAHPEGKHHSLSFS
Assay: HTRF KinEASE-TK kinase assay, JAK3
Format: biochemical
Conditions: read-out: % JAK3 Remaining activity vs DMSO (10 μM, 3 h)
Experimental: Kinase activity was monitored using a HTRF® KinEASE-TK kit from Cisbio (62TK0PEC). […] JAK-3 was purchased from Promega. 0.0133 ng/ul JAK3 (0.21 nM) was preincubated in the absence or presence of inhibitor at room temperature for 3 hours. Reaction with substrate was then initiated by adding biotinylated substrate and ATP. […] After 60 min of incubation, the fluorescence emission was measured at 620 nm and 665 nm. […]
TEST_READOUT: remaining activity at 10 µM

{"COMPOUND": "CS(=O)(=O)c1c(F)c(F)c(F)c(F)c1C(=O)n1ccc2c(N)ncnc21", "remaining activity at 10 µM": "> 90%"}
{"COMPOUND": "COCCOc1ccc(Nc2ncc(F)c(NCCCNS(=O)(=O)c3c(F)c(F)c(F)c(F)c3CF)n2)cc1", "remaining activity at 10 µM": "< 50%"}

Ask: # return recorded remaining activity at 10 µM for input `COCCOc1ccc(Nc2ncc(F)c(Nc3cccc(NS(=O)(=O)c4c(F)c(F)c(F)c(F)c4OC(F)F)c3)n2)cc1`
Result: < 50%

Ask: Tell me measured remaining activity at 10 µM for `CN(C)S(=O)(=O)c1c(F)c(F)c(F)c(F)c1C(=O)NCCCn1nc(-c2ccc(Oc3ccccc3)cc2)c2c(N)ncnc21` please.
Result: > 90%

Ask: Look up and report measured remaining activity at 10 µM for this entry: `COCCOc1ccc(Nc2ncc(F)c(Nc3cccc(NS(=O)(=O)c4c(F)c(F)c(F)c(F)c4C(F)F)c3)n2)cc1`
Result: 50 to 90%

Ask: Please look at this compound and report its remaining activity at 10 µM: `CN(C)S(=O)(=O)c1c(F)c(F)c(F)c(F)c1C(=O)N1CCC[C@@H](n2nc(-c3ccc(Oc4ccccc4)cc3)c3c(N)ncnc32)C1`
Result: > 90%

Ask: Supply remaining activity at 10 µM value. Item: `CN(C)S(=O)(=O)c1c(F)c(F)c(F)c(F)c1C(=O)NCCNc1ncnc2[nH]ccc12`
Result: < 50%

Ask: Answer with reported remaining activity at 10 µM of COCCOc1ccc(Nc2ncc(F)c(Nc3cccc(NC(=O)c4c(F)c(F)c(F)c(F)c4[S@+](C)[O-])c3)n2)cc1 (stereo in doubt)
Result: < 50%

Ask: Output measured remaining activity at 10 µM for this item: `Nc1ncnc2c1c(-c1ccc(Oc3ccccc3)cc1)nn2CCCNC(=O)c1c(F)c(F)c(F)c(F)c1S(N)(=O)=O`
Result: < 50%

Ask: Specify measured remaining activity at 10 µM for C[S@+]([O-])c1c(F)c(F)c(F)c(F)c1C(=O)N1CC(n2nc(-c3ccc(Oc4ccccc4)cc3)c3c(N)ncnc32)C1 (racemic) .
Result: < 50%

Ask: For `COCCOc1ccc(Nc2ncc(F)c(Nc3cccc(NS(=O)(=O)c4c(F)c(F)c(F)c(F)c4C(F)(F)F)c3)n2)cc1` , write its remaining activity at 10 µM.
Result: < 50%

Ask: Kindly indicate its recorded remaining activity at 10 µM. Item: `Nc1ncnc2c1c(-c1ccc(Oc3ccccc3)cc1)nn2[C@@H]1CCCN(C(=O)c2c(F)c(F)c(F)c(F)c2S(N)(=O)=O)C1`
Result: > 90%

Ask: Fill in reported remaining activity at 10 µM for this entry: C[S+]([O-])c1c(F)c(F)c(F)c(F)c1C(=O)Nc1cc2c(Nc3ccc(F)c(Cl)c3)ncnc2cc1OC1CCOC1 (stereo not shown)
Result: > 90%
